Examples of compounds with documented Inhibition follow.
# System: Candida albicans
# condition-parameters: 20 µM
# Description: Antifungal activity against Candida albicans ATCC 90028 (CO-ADD:FG_001); MIC in YNB media using NBS plates, by OD630
Entries with a potency or affinity are not part of this list.

compound: CN(/N=N/c1[nH]cnc1C(=O)NN)C1CCCCC1
uom: %
Inhibition: 3.97

compound: O=C(O)C(c1ccccc1)C1(O)CCCCC1 (stereo not drawn)
uom: %
Inhibition: 0.92

compound: NC(=O)c1ncn2c(=O)n(CCCl)nnc12 [MITOZOLOMIDE]
uom: %
Inhibition: 2.26

compound: Cc1cc(NC(=O)c2ccccc2)c(Cl)cc1N
uom: %
Inhibition: 3.76

compound: c1ccc(Sc2ncccn2)nc1
uom: %
Inhibition: 3.74

compound: NC(=O)c1nc2c([nH]c1=O)CCCC2
uom: %
Inhibition: -0.94

compound: COc1cc2oc3cc(C)oc(=O)c3c2cc1OC
uom: %
Inhibition: 1.88

compound: Cn1c(CO)cnc1-c1ccccc1
uom: %
Inhibition: 2.13

compound: CC(C)N(Cc1ccccc1)S(=O)(=O)c1nc(C(C)(C)C)n[nH]1
uom: %
Inhibition: 0.76

compound: CSc1ncc2ncn(C3OC(CO)C(O)C3O)c2n1 (stereo not drawn)
uom: %
Inhibition: 3.06

compound: Nc1ccc(/N=N/c2ccc(O)cc2)c(N)n1
uom: %
Inhibition: 0.86

compound: CCc1oc2ccccc2c1C(=O)c1cc(Br)c(O)c(Br)c1
uom: %
Inhibition: 9.57

compound: O=C(O)/C=C\C(=O)Nc1nccs1
uom: %
Inhibition: 0.91
